The reported measurements were obtained from patent US20250340623A1.

Molecular target: alpha-synuclein fibrils (UniProt P37840 1-140)
Assay: SPR, captured mAb
measurement-type: koff (s⁻¹)
Response body: numeric value in s⁻¹, unit text excluded.

Here is how some binders turned out for koff.
>  <binder>
ACI-8030-6106F5-Ab1 (antibody, V domains shown, mouse hybridoma mAb; VH/VL only; also called 6106F5B10) VH: QVQLQQSGPELVKPGASVKISCKASGYSFTTYYIHWMKQRPGQGPEWIGWIYPGRGYTKYNEKFKDKAAQTADTSSNTAYMQLSSLRSEDSAVYYCARDWETGFPYWGQGTLVTVSA VL: DIVLTQSPASLAVSLGQRATISCKASQSVDYGGDSWLNWYQQKPGQPPKLLIYAASNLDSGIPARFGGSGSGTDFTLNIHPVEEEDAATYYCQQSGEDPFTFGGGTNLEIK

>  <output-unit>
s⁻¹

>  <koff>
0.000232

$$$$
>  <binder>
ACI-8033-21C8-Ab1 (antibody, V domains shown, mouse hybridoma mAb; VH/VL only; also called 917.21C8E4C8) VH: QVQLQQPGAELVKPGASVKMSCKASGYTFTSYWITWVRQRPGQGLDWIGDIYPGGGVTNYNEKFKTKATLTVDTSSSTAYMHLSSLTSEDSAVYFCATAQTTFAYWGQGTLVTVSA VL: DVLMTQTPLSLPVSLGDQASISCRSSQNIVHNNGNTYLEWYLQKPGQSPKLLIYKVSNRFSGVPDRFSGSGSGTDFTLKISRVEAEDLGVYYCFQGSHVPRTFGGGTKLEIK

>  <output-unit>
s⁻¹

>  <koff>
0.000156

$$$$

Record ACI-8032-6314A3-Ab3 (antibody, V domains shown, mouse hybridoma mAb; VH/VL only; also called 6314A3E4) VH: QVQLQQSGAELARPGASVKLSCKASGYTFTSYGVSWVKQRTGQGLEWIGEIYPRSGNTYYNEKFKGKATLTADKSSSTAYMELRSLTSEDSAVYFCASESYYGDYDWYFDVWGTGTTVTVSS VL: DVLMTQIPLSLPVSPGDQVFISCRSSQSIVHSNGNTYLEWYLQKPGQSPKPLIYKVSNRFSGVPDRFSGSGSGTDFTLKISRVEAEDLGVYYCFQGSHVPPTFGGGTKLEIK . Reported koff: 0.000325
